Every entry's value here was drawn from PubChem BioAssay (NCI).

Assay: NCI Yeast Anticancer Drug Screen. Data for the mec2-1 strain (AID 157)
Settings: S. cerevisiae mec2-1 strain, stronger effect = higher value; at 50.0 µM unless noted
Protocol: Growth inhibition of yeast strains with defined genetic alterations is measured as a screen for potential anti-cancer activity. Selected strains with alterations in DNA damage repair or cell cycle control were exposed to compounds and growth inhibition was measured relative to vehicle treated controls. The strain used in this assay is mec2-1
Compounds without any hit were thinned out: in the full panel of roughly 79,000, 15% have a hit.
Collected growth inhibition values appear next to each entry.
API: value field is a number in %; no unit string.

Sample answers from the record:
CC(Oc1ccccc1)C(=O)NC(=S)Nc1cccc2ccccc12 (stereo unspecified)	-3.5
CCCc1ccc(C)c(CCC)c1O	-10.9
COC(=O)C(Cc1ccc(N(C)C)cc1)(NC(=O)c1ccccc1)P(=O)(OC)OC (stereo unspecified)	10.8
CCOC(=O)CC/C=N/Nc1ccc([N+](=O)[O-])cc1[N+](=O)[O-]	-14
O=C(O)C1=CCCc2ccc3ccccc3c21	6

Read the next record carefully.
Reported growth inhibition for CC1CC(C)OC(c2ccccc2Cl)O1 (stereo unspecified) : what is it? 12.4

###

experiment: NCI Yeast Anticancer Drug Screen. Data for the mlh1 rad18 strain (AID 175); conditions: S. cerevisiae mlh1 rad18 strain growth inhibition, stronger effect = higher value; at 50.0 µM unless noted
Compounds without any hit were thinned out: in the full panel of roughly 79,000, 15% have a hit.
Parameter Measured: growth inhibition (%)
API: value field is a number in %; no unit string.

COc1ccc2c(c1)c(CC(=O)O)c(C)n2Cc1ccccc1	-7.65
CCCNCCCCCCNc1cc(OC)cc2cccnc12	54.3
C/C=C1\CC2C=CC1C2 (centres undefined) (tested in a mixture with another compound)	8.15
CC1CC(C)OC(c2ccc(Cl)cc2)O1 (centres undefined)	19.1
CN(C)CCN1CC2Cc3ccccc3C1c1ccccc12 (centres undefined)	9.1
Cc1nc2[nH]c(=O)[nH]c(=O)c2s1	-2.35

Reported growth inhibition for "ClCCN1CCOC1=Nc1ccc2c(c1)CCCC2" : what is it? -49.2

###

test: NCI Yeast Anticancer Drug Screen. Data for the rad50 strain (AID 155);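 further: 0% = growth of vehicle-only cultures of the same strain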; conditions: S. cerevisiae rad50 strain growth inhibition; at 50.0 µM unless noted
The panel holds about 79,000 compounds, 15% with a hit somewhere; the sample as a whole holds those more often. The source made the active and inactive calls. Rule as the data show it: active = growth inhibition above about 70%; inactive = the rest.
The reply should name one outcome from active, inactive

Example cases with answers are listed next.
CCOC(=O)N1C(=O)C2C3C=CC(C2C1=O)C1C2C(=O)N(C(=O)OCC)C(=O)C2C31 (centres undefined)	inactive
O=c1[nH]c(/C=C/c2ccccc2)c([N+](=O)[O-])c(=O)[nH]1	inactive
CN(C)C[C@@H]1C2C=CC(C2)[C@@H]1CO (some centres undefined)	inactive
OCCN/N=C/c1ccncc1	inactive
C=CCOC(=O)c1ccc(C(C)C)cc1	inactive

Given N#CC(c1ccccc1)c1ccc2ccccc2n1 (centres undefined) , state the outcome it received in this test. inactive

Given "Cn1nnn(Cc2ccccc2)/c1=N/C(=S)Nc1ccccc1" , state the outcome it received in this test. inactive

Given CCCCC1(N=[N+]=[N-])C(=O)C2C=CC=C3c4ccccc4N(C1=O)C32 (centres undefined) , state the outcome it received in this test. inactive

###

assay: NCI Yeast Anticancer Drug Screen. Data for the cln2 rad14 strain (AID 165);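 further: 0% = growth equal to vehicle treated cultures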; conditions: S. cerevisiae cln2 rad14 strain, stronger effect = higher value; at 50.0 µM unless noted
This is part of a sample that, as a whole, favours compounds with a hit. Of some 79,000 tested, about 15% had one in any assay.
Collected growth inhibition values appear next to each entry.
API: value field is a number in %; no unit string.

Sample answers from the record:
O=C(O)COc1ccc(F)cc1F	-31.4
Cc1cc(N)ccc1-c1cc(C)c(N)c(C)c1C	13.2
CC1=N/C(=C\c2cccc([N+](=O)[O-])c2)C(=O)O1	3.35
Cn1c([N+](=O)[O-])cnc1CSc1nc(-c2ccccc2)no1	-1.1
COc1cc(C2NC(C(=O)O)CS2)cc(OC)c1OC (configuration not stated)	-19.1
CCC(=O)c1ccc(OC)cc1OC	-2.05

Read the next record carefully.
Reported growth inhibition for "C(=C/c1ccccc1)/c1ccccc1" : what is it? 8.85

###

assay: NCI Yeast Anticancer Drug Screen. Data for the sgs1 mgt1 strain (AID 161);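 further: 0% = growth of cultures given vehicle only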; details: S. cerevisiae sgs1 mgt1 strain; at 50.0 µM unless noted
The panel holds about 79,000 compounds, 15% with a hit somewhere; the sample as a whole holds those more often. Calls of active or inactive are those of the source. Rule as the data show it: active = growth inhibition above about 70%; inactive = the rest.
The reply should name one outcome from active, inactive

Example cases with answers are listed next.
N#Cc1c(-c2ccccc2Cl)c(-c2ccccc2Cl)nn(CCO)c1=O	inactive
Cc1n[nH]c(=O)n1/N=C/c1ccncc1	inactive
Cc1c(Cl)cccc1NC(=O)C(=O)c1c(O)c2ccc(O)cc2oc1=O	inactive
CC(C)C1Oc2ccc(Br)cc2C1O (stereo unspecified)	inactive
CN(C)C1=CC(=S)NC(c2ccccc2)C1 (stereo unspecified)	inactive
COC(=O)C(=O)C(C(=O)C(=O)Nc1cccc(C(C)=O)c1)c1nc2ccccc2[nH]c1=O (stereo unspecified)	inactive
Nc1c(N2CCOCC2)c(=O)nc2[nH]/c(=C\c3ccccc3)c(=O)n12	inactive
O=C(Cc1ccccc1)CC(CC(=O)Cc1ccccc1)c1ccccc1	inactive

Given NC(=S)/N=C(/c1nc2ccc(Cl)cc2[nH]c1=O)C(O)c1ccccc1Cl (stereo unspecified) , state the outcome it received in this test. inactive

Given "COc1ccccc1NC(=O)Oc1c(C(C)C)cccc1C(C)C" , state the outcome it received in this test. inactive

Given c1ccc2nc(CCC3CCCCN3)ccc2c1 (stereo unspecified) , state the outcome it received in this test. inactive

###

assay: NCI Yeast Anticancer Drug Screen. Data for the bub3 strain (AID 167); details: S. cerevisiae bub3 mutant strain, stronger effect = higher value; at 50.0 µM unless noted
Compounds without any hit were thinned out: in the full panel of roughly 79,000, 15% have a hit.
Parameter Measured: growth inhibition (%)
API: value field is a number in %; no unit string.

Sample answers from the record:
Cc1nc(CO)c(-c2ccc([N+](=O)[O-])cc2)o1	-13.1
CNC(=S)C#N	-13
CCOC(=O)O/C(=C\c1ccc(OC)cc1)c1c(OC(=O)OCC)n(C(=O)OCC)c2ccccc12	12.7

Reported growth inhibition for CCCCCCC1OCC(CC)([N+](=O)[O-])CO1 (stereo not drawn) : what is it? -23.6

Reported growth inhibition for COC(C(=O)NN)c1ccccc1 (stereo not drawn) : what is it? -35.5

Reported growth inhibition for CN1C2=NC(=O)NC(=O)C23OC3c2ccccc21 (stereo not drawn) (tested in a mixture with another compound) : what is it? 1.75

Reported growth inhibition for "COc1ccc(N2CC[N+](c3ccc(N(C)C)cc3)=C2C2=[N+](c3ccc(N(C)C)cc3)CCN2c2ccc(OC)cc2)cc1" : what is it? -10.2

Reported growth inhibition for "COc1ccccc1-n1c(=O)c(N=Nc2ccc(C)cc2)c(O)n(-c2ccccc2C)c1=S" : what is it? 0

###

Collected growth inhibition values appear next to each entry.
experiment: NCI Yeast Anticancer Drug Screen. Data for the rad50 strain (AID 155);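 further: 0% = growth of vehicle-only cultures of the same strain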; details: S. cerevisiae rad50 strain growth inhibition, stronger effect = higher value; at 50.0 µM unless noted
The panel holds about 79,000 compounds, 15% with a hit somewhere; the sample as a whole holds those more often.
API: value field is a number in %; no unit string.

CCOC(=O)NNC(=O)Nc1ccc(O[Si](C)(C)C)cc1	13.4

Reported growth inhibition for "COc1cc(Cc2nccc3cc(OC)c(OC)cc23)c(C(C)=O)cc1OC" : what is it? 21.9

Reported growth inhibition for "Nc1nc(=O)[nH]c(=O)[nH]1" : what is it? -5

Reported growth inhibition for CC(O)COC(C)C (stereo not drawn) : what is it? 8.55

Reported growth inhibition for "COc1ccc2c(c1)[nH]c1c3ccc(OC)cc3oc(=O)c21" : what is it? -52

Reported growth inhibition for "COc1cc2c(cc1OC)C(c1c(-c3c(Cl)cccc3Cl)noc1C)=NCC2" : what is it? -3.8

###

Collected growth inhibition values appear next to each entry.
assay: NCI Yeast Anticancer Drug Screen. Data for the mlh1 rad18 strain (AID 175); details: S. cerevisiae mlh1 rad18 strain growth inhibition, stronger effect = higher value; at 50.0 µM unless noted
The panel holds about 79,000 compounds, 15% with a hit somewhere; the sample as a whole holds those more often. Activity calls are given as the source filed them. Cut-off read from the data, not from the text of the source: active = growth inhibition above about 70%; inactive = the rest.

Sample answers from the record:
CCOc1ccccc1Nc1ccc(N)cc1S(=O)(=O)O	-8.05% (inactive)
C=CSS/C(=C/N(C=O)Cc1cnc(C)nc1N)CCO	-10% (inactive)

Reported growth inhibition for COC(=O)C1CC2(CCC1=O)Cc1ccccc1C2=O (stereo not given) : what is it? -16.4% (inactive)

Reported growth inhibition for "CC(=O)Nc1ccc2ccccc2c1[N+](=O)[O-]" : what is it? 15.7% (inactive)

Reported growth inhibition for "CC/C=C/C(=O)CC(O)(C(F)(F)F)C(F)(F)F" : what is it? -20.8% (inactive)

Reported growth inhibition for "O=Nc1c(S(=O)(=O)O)cc2cc(S(=O)(=O)O)ccc2c1O" : what is it? 30.4% (inactive)

Reported growth inhibition for "COc1cc(OC)c(NC(=O)C2=C(C)NC(C)=C(C(=O)Nc3cc(Cl)c(OC)cc3OC)C2c2cccc([N+](=O)[O-])c2)cc1Cl" : what is it? 3.7% (inactive)

Reported growth inhibition for CC(C)(O)C1CC(=O)C(C)(C2C(O)CC3(C)C4CC=C5C(CCC(O)C5(C)C)C4(C)C(=O)CC23C)O1 (stereo not given) : what is it? 47.6% (inactive)

Reported growth inhibition for CC(=O)OCC(C)O (stereo not given) : what is it? 2% (inactive)

Reported growth inhibition for "O=C(/C=C\c1ccc(Cl)c(Cl)c1)/C=C/c1ccc(Cl)c(Cl)c1" : what is it? 16.6% (inactive)

Reported growth inhibition for "O=C(NCCO)c1c(O)c2ccccc2[nH]c1=O" : what is it? 2.9% (inactive)

Reported growth inhibition for "Cc1nc2ccc(Br)cc2c(=O)n1-c1ccc(-c2n[nH]c(=S)n2-c2ccccc2)cc1" : what is it? 42.4% (inactive)

Reported growth inhibition for CCCOC(=O)C1C(c2ccc(OC)cc2)NC(c2ccc(OC)cc2)C(C(=O)OCCC)S1(=O)=O (stereo not given) : what is it? -14.3% (inactive)

Reported growth inhibition for "Cc1ccc(Nc2ccc(C)cc2[N+](=O)[O-])cc1" : what is it? 17.6% (inactive)
